Tested on: Staphylococcus aureus
MEASUREMENT_CONDITIONS: Concentration 20 uM; ASSAY_TEST Inhibition of Bacterial Growth; detection method Absorption (OD600); MEDIA CAMHB; plate type 384well; NBS; CORNING #3640; time 18 hr
Description: Antibacterial activity against Staphylococcus aureus MRSA ATCC 43300 (CO-ADD:GP_020); MIC in CAMBH media, using NBS plates, by OD(600)
Results with a measured potency or affinity are listed apart.
MEASURED_PROPERTY: Inhibition (%)
Reply with just the number (in %).

{"columns": ["COMPOUND", "UNITS_OF_MEASURE", "QUANTITATIVE_READOUT"],
 "data": [
  ["Cc1ccc(N(CC2=NCCN2)c2cccc(O)c2)cc1", "%", 2.09],
  ["O.OC[C@H]1O[C@@H](n2cnc3c(NC4CCCC4)nc(Cl)nc32)[C@@H](O)C1O (stereo not given in full)", "%", 16.71],
  ["CCS(=O)(=O)CCn1c([N+](=O)[O-])cnc1C", "%", 16.09],
  ["COC(=O)Nc1nc2cc(C(=O)c3ccccc3)ccc2[nH]1", "%", 7.86],
  ["CNCCCCOc1ccccc1Cc1ccccc1.Cl", "%", 10.88],
  ["Cl.O=c1n(CCCN2CCN(c3cccc(Cl)c3)CC2)nc2ccccn12 [TRAZODONE HYDROCHLORIDE]", "%", 11.44],
  ["CC(COc1ccccc1)NC(C)C(O)c1ccc(O)cc1.Cl (stereo not given) [ISOXSUPRINE HYDROCHLORIDE]", "%", 10.12],
  ["CCN1CC(CCN2CCOCC2)C(c2ccccc2)(c2ccccc2)C1=O.Cl (stereo not given)", "%", -18.77]
]}

What does the data say about its Inhibition? Entry: Cc1nccn1CC1CCc2c(c3ccccc3n2C)C1=O (stereo not given) 4.05

What does the data say about its Inhibition? Entry: O=C(O)c1cc(/N=N/c2ccc(S(=O)(=O)Nc3ccccn3)cc2)ccc1O -13.67
